These measurements were taken from the supplement of paper PMC10567573.

Please go through the items and note down their protein stability index.
B1: PPEF2 (parent)
chain: AFKAAALIQRWYRRYVARLEMRRR

Variants of: B1
Test Protocol: protein stability index of a GFP-peptide fusion (GPS, HEK-293T) (PSI 1-6); higher = more stable;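 note: lentivirally expressed fusions sorted by FACS into six bins by GFP to DsRed ratio, PSI derived from sequencing read proportions per bin multiplied by bin number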
Condition Context: c terminus: a fixed tail appended

W11K :: 5.21
A4P :: 2.38
A5Q :: 1.85
Y15R :: 4.11
A6C :: 4.25
I8C :: 3.52
R24F :: 1.81
A6Q :: 3.88

Give one value of protein stability index per listed variant.
1. V16A
2. R24H
3. Y15E
4. Q9H
5. R18G
6. A6T
7. W11I
8. R24T

Solution:
[3.94, 3.78, 3.89, 2.16, 1.95, 4.02, 2.81, 2.48]
